System: NCI-H322M lung
assay_text: NCI-60 one-dose screen, 48 h (100 = growth as untreated, 0 = no growth, -100 = all killed)
assay_conditions: 10 µM unless noted
This is part of a sample that, as a whole, favours compounds with a hit. Of some 83,000 tested, about 20% had one in any assay.
Reported growth is given for each of the following compounds.
Please state the figure in %; there is no need to write the unit.

Reference set (3 entries):
{"compound": "CN(C)CCN1C(=O)c2c(c3c4ccccc4n4c3c3c2c2ccccc2n3C2CC(O)C(O)C4(C)O2)C1=O (centres undefined)", "target_entity": "NCI-H322M lung", "measurement_units": "%", "recorded_value": 34.8}
{"compound": "COc1ccc(-c2nn3c(-c4cc(F)c(Cl)cc4Cl)nnc3s2)cc1", "target_entity": "NCI-H322M lung", "measurement_units": "%", "recorded_value": 79.2}
{"compound": "COc1cc(N=Nc2ccc(O)c3ncccc23)c2ncccc2c1", "target_entity": "NCI-H322M lung", "measurement_units": "%", "recorded_value": 55.9}

Prompt: Would you kindly share the measured growth for "O=C(Nc1ccccc1C(=O)N/N=C(\c1ccccc1)c1ccccn1)c1ccccc1" ?
Response: 29.1

Prompt: Would you kindly share the measured growth for "Cn1cc(-c2nonc2-c2cn(C)c3ccc(Br)cc23)c2ccccc21" ?
Response: 64

Prompt: Would you kindly share the measured growth for CC[C@]12CN3CCc4c([nH]c5ccccc45)[C@@](C(=O)OC)(c4cc5c(cc4OC)N(C)[C@H]4[C@@](O)(C(=O)OC)[C@H](OC(C)=O)[C@]6(CC)C=CCN7CC[C@]54[C@@H]76)CC(C3)[C@H]1O2 (some centres undefined) ?
Response: 41

Prompt: Would you kindly share the measured growth for "COc1ccc2c(c1)c(-c1nc(-c3c[nH]c4c(Cl)nccc34)cs1)cn2C" ?
Response: 91.3

Prompt: Would you kindly share the measured growth for "COc1cc(Cl)cc(-c2nn(C(=O)NS(=O)(=O)c3ccc(Cl)cc3)cc2-c2ccncc2)c1" ?
Response: 96.5

====

System: SK-MEL-5 melanoma
assay_text: NCI-60 one-dose screen, 48 h (100 = growth as untreated, 0 = no growth, -100 = all killed)
assay_conditions: 10 µM unless noted
This is part of a sample that, as a whole, favours compounds with a hit. Of some 83,000 tested, about 20% had one in any assay.
readout_label: growth (%)
Please state the figure in %; there is no need to write the unit.

Reference set (3 entries):
{"molecule": "CC(=O)OC[C@]12CCC(C)(C)C=C1[C@H]1CC[C@@H]3[C@@]4(C)CCCNC(C)(C)[C@@H]4CC[C@@]3(C)[C@]1(C)CC2", "recorded_value": 9.31}
{"molecule": "COc1ccc2c(c1)c(C(=O)c1nc(-c3cn(C)c4ccccc34)no1)cn2C", "recorded_value": 82.2}
{"molecule": "COc1cccc(C2C(C#N)=C(N)Oc3cc(OCCCCCC[P+](c4ccccc4)(c4ccccc4)c4ccccc4)ccc32)c1 (centres undefined)", "recorded_value": -97.5}

Please look at the following molecule next.
Prompt: Would you kindly share the measured growth for "CCOC(=O)c1c(-c2ccc(OC)cc2)c(C#N)c2c(C#N)c(N)nn2c1N" ?
Response: 19.3

====

Tested on: OVCAR-8 ovarian
assay_text: NCI-60 one-dose screen, 48 h
assay_conditions: 10 µM unless noted
Compounds without any hit were thinned out: in the full panel of roughly 83,000, 20% have a hit. Active and inactive are the calls of the source. The calls were made as follows: active = growth percent below 10; inactive = the rest.
Could you please pick one outcome from this set? TRUE = active, FALSE = inactive

Reference set (3 entries):
{"molecule": "O=C1c2cc3c(cc2-c2c1c1ccc(Cl)cc1c(=O)n2CCCn1ccnc1)OCO3", "label_value": "FALSE"}
{"molecule": "C/C=C(\\C)C(=O)N[C@H]1CC[C@]2(C)C3CC[C@@]4(C)C(CC[C@@H]4C(C)N(C)C)C3CCC2[C@H]1OC(C)=O (stereo not given in full)", "label_value": "FALSE"}
{"molecule": "COc1ccc2nc3cc(Cl)ccc3c(NCCCNCCC(C)O)c2c1 (stereo not given)", "label_value": "TRUE"}

Prompt: How did this test come out for "COc1ccc(-c2c[nH]c(C(=O)O)c2-c2cc(OC)c(OC)c(OC)c2)cc1" ?
Response: FALSE

Prompt: How did this test come out for "CN1Cn2c(ccc2C(F)(F)F)C(=O)CS1(=O)=O" ?
Response: FALSE

Prompt: How did this test come out for "CCOC(=O)C(=Cc1ccc(C#N)cc1)C(=O)OCC" ?
Response: FALSE

The values you see were collected from PubChem BioAssay (NCI).
